Assay: inhibition of PAO1 biofilm formation – strain PAO1, LB-PBS medium, absorbance 600 nm, primary screen (AID 1176); further: test concentration not given here
Conditions: P. aeruginosa PAO1 growth/biofilm, A600, 12 h; higher = more signal
Reported z-score maps to class as: Low (below -0.08), Mid (-0.08 to below 0.4), High (0.4 or more)

Exercise: Please let me know in which category the item OB1C=CCC(CCc2ccccc2)O1 (stereo unspecified) belongs.
Key: High

Exercise: Now this one: `CCCNC(=O)[C@@H]1c2ccccc2C(=O)N(Cc2ccccc2OC)[C@H]1c1ccc(CO)cc1`
Key: Low

Exercise: Now this one: `COCC(=C=CC[C@H](O)c1cccc(OCCO)c1)CCO`
Key: Mid

Exercise: Now this one: `COC(=O)c1c(CC[C@@H](CO)NC(=O)N[C@@H](Cc2ccccc2)Cn2cc(-c3ccccn3)nn2)oc(C(=O)N2CCOCC2)c1C(=O)OC`
Key: Low

Exercise: Now this one: `CN(C)CCCC[C@@H]1NC(=O)[C@H]2C[C@@H](C(=O)NCCCCCN)[C@@H](c3cccc(OCCO)c3)N2C1=O`
Key: Mid

Exercise: Now this one: `NC(=O)[C@@H]1[C@H]2C(=O)O[C@H](c3ccccc3)[C@H](c3ccccc3)N2[C@H](c2ccc(O)cc2)[C@@]12C(=O)Nc1ccc(C#CC3=CCCCC3)cc12`
Key: High

Exercise: Now this one: `O=C1O[C@@H](c2ccccc2)[C@@H](c2ccccc2)N2[C@@H](c3ccccc3OCCO)[C@]3(C(=O)Nc4ccccc43)[C@@H](C(=O)O)[C@H]12`
Key: High

Exercise: Now this one: `C=CC[C@]1(C(N)=O)COC(c2ccc(OCCCO)cc2)=N1`
Key: Low

Exercise: Now this one: `C#CCNCc1ccccc1`
Key: Low

Exercise: Now this one: `COc1ccccc1CN1C(=O)c2ccccc2[C@@]2(Cc3ccccc3N(CCCN(C)C)C2=O)[C@@H]1c1ccc(CO)cc1`
Key: Mid

Exercise: Now this one: `CO[C@H]1O[C@H](CO)[C@@H](OC(=O)Nc2ccccc2)[C@@H]2OC(=O)[C@@H](Cc3ccc4ccccc4c3)C/C=C/C[C@H](Cc3ccc4ccccc4c3)C(=O)O[C@@H]12`
Key: High

Exercise: Now this one: `CO[C@H]1O[C@H](CO)[C@@H](OC(=O)Nc2cccc(F)c2)[C@H](OC(=O)Nc2ccccc2)[C@H]1OC(=O)Nc1ccccc1`
Key: Low

Exercise: Now this one: `COC(=O)[C@@]1(Cc2ccc(F)cc2)[C@H]2c3cc(C(=O)N(C)C)n(Cc4cc(C)n(C)n4)c3C[C@H]2CN1C(=O)c1ccccc1`
Key: High

Exercise: Now this one: `CN(C)C(=O)[C@]1(Cc2ccccc2)N=C(c2ccc(OCCCO)cc2)O[C@@H]1c1ccccc1N=[N+]=[N-]`
Key: Low

Exercise: Now this one: `COC(=O)[C@]1(CCC(=O)OC(C)(C)C)N=C(c2ccc(OCCCO)cc2)O[C@@H]1c1ccccc1`
Key: High

Exercise: Now this one: `C=CCN1C(=O)[C@]2(O[C@H](CCO)[C@@H]([Si](C)(C)c3ccc(OC)cc3)[C@@H]2C)c2cc(N(C=O)c3ccccc3)ccc21`
Key: Mid

All values here come from PubChem BioAssay.
